Target: recombinant human kappa opioid receptor (Homo sapiens (Human), UniProt P41145)
Test: cell-based
Conditions: whole CHO cells, 0.5 nM 3H Diprenorphine; read-out: Ki at KAPPA receptors
MEASURED METRIC: pKi
API: returns pKi as number; meaning -log10 of concentration in mol/L.

Input: Could you tell me which pKi is on file for `COCCOCCOCCO[C@H]1CC[C@@]2(O)[C@H]3Cc4ccc(O)c5c4[C@@]2(CCN3CC2CCC2)[C@H]1O5` ?
Output: 6.66

----------
Target: recombinant human kappa opioid receptor (Homo sapiens (Human), UniProt P41145)
Experiment: biochemical
Conditions: agonist mode; read-out: Kappa Agonist EC50, GTP-γS Binding
MEASURED METRIC: pEC50
API: returns pEC50 as number; meaning -log10 of concentration in mol/L.

Input: Could you tell me which pEC50 is on file for `COCCOCCOCCO[C@H]1CC[C@@]2(O)[C@H]3Cc4ccc(O)c5c4[C@@]2(CCN3CC2CCC2)[C@H]1O5` ?
Output: 7.57

----------
Target: recombinant human delta opioid receptor (Homo sapiens (Human), UniProt P41143)
Sequence (P41143 whole entry, looked up): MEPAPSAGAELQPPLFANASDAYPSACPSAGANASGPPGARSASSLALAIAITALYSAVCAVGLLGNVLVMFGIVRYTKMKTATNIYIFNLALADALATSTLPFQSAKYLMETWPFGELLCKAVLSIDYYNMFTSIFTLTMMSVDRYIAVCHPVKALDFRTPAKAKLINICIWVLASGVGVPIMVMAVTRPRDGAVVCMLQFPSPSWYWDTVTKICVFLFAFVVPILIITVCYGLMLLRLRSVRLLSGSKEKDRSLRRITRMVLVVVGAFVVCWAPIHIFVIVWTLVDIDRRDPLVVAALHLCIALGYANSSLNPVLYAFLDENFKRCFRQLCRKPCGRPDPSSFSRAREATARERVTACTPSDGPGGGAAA
Test: Radioligand competition binding in whole CHO cells, delta opioid receptor (3H DPDPE)
# key: entry, value: pKi
API: returns pKi as number; meaning -log10 of concentration in mol/L.

COCCOCCOCCO[C@H]1CC[C@@]2(O)[C@H]3Cc4ccc(O)c5c4[C@@]2(CCN3CC2CCC2)[C@H]1O5 [6-O-mPEG3-Nalbuphine, 6-O-mPEG3-nalbuphine]    6.79

In the following, a different compound is considered.
Input: Could you tell me which pKi is on file for COCCOCCOCCOCCO[C@H]1CC[C@@]2(O)[C@H]3Cc4ccc(O)c5c4[C@@]2(CCN3CC2CCC2)[C@H]1O5 [6-O-mPEG4-Nalbuphine, 6-O-mPEG4-nalbuphine] ?
Output: 6.83

----------
# key: entry, value: pKi
Target: mu opioid receptor (Homo sapiens (Human))
Test: cell-based
Details: whole CHO cells, 0.5 nM 3H Naloxone; read-out: Ki at MU Receptors
Procedure: Using conventional receptor binding assay techniques, several molecules were assayed to determine binding activity at kappa, mu and delta opioid subtypes of opioid receptors. Cells were plated in 24 well plates at a density of 0.2-0.3*10^6 cells/well and washed with assay buffer containing 50 mM Tris.HCl and 5 mM MgCl2 (pH 7.4). […] At the end of the incubation, cells were washed with 50 mM Tris HCl (pH 8.0), solubilized with NaOH and bound radioactivity was measured using a scintillation counter. […]
API: returns pKi as number; meaning -log10 of concentration in mol/L.

COCCOCCOCCO[C@H]1CC[C@@]2(O)[C@H]3Cc4ccc(O)c5c4[C@@]2(CCN3CC2CCC2)[C@H]1O5    7.56

Input: Could you tell me which pKi is on file for `COCCOCCOCCOCCO[C@H]1CC[C@@]2(O)[C@H]3Cc4ccc(O)c5c4[C@@]2(CCN3CC2CCC2)[C@H]1O5` ?
Output: 7.76

----------
Experiment: in vivo
Conditions: rat, iv, 25 mg/kg
MEASURED METRIC: Kp at 1 h

Input: Could you tell me which Kp at 1 h is on file for `COCCOCCOCCO[C@H]1CC[C@@]2(O)[C@H]3Cc4ccc(O)c5c4[C@@]2(CCN3CC2CCC2)[C@H]1O5` ?
Output: 0.23

Every entry's value here was drawn from patent US10512644B2.
